biological target: CYP1A1 (Mus musculus, UniProt P00184); assay: Inhibition of CYP1A1 in mouse RAW264.7 cells assessed as relative activity by measuring fold change at 5 uM incubated for 12 hrs by EROD assay relative to control; assay type: cell-based; conditions: read-out: FC
Sequence (P00184 whole entry): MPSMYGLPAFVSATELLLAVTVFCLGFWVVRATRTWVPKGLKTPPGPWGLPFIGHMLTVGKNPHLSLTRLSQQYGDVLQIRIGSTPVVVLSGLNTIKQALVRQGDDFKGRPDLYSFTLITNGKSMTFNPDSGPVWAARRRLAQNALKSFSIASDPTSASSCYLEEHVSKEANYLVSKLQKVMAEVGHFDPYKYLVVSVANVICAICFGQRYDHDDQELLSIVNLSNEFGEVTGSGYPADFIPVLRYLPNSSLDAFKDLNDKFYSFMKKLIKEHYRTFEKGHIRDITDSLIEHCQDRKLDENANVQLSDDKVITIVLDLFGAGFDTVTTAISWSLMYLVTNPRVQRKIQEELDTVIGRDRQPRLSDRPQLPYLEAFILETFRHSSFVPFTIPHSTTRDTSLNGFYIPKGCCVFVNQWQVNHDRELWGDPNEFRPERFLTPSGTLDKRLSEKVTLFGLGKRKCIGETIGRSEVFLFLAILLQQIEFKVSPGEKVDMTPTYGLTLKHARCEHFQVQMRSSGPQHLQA
READOUT_LABEL: fold induction at 12 h, 5 µM

| COMPOUND_STRUCTURE_STRING | TESTED_TARGET | READOUT_LABEL | OBSERVED |
| --- | --- | --- | --- |
| Cn1c(=O)n(C)c2cc(C(=O)/C=C/c3ccc(O[Si](C)(C)C(C)(C)C)cc3)ccc21 | CYP1A1 (Mus musculus, UniProt P00184) | fold induction at 12 h, 5 µM | 0.89 |
| Cn1c(=O)n(C)c2cc(C(=O)/C=C/c3ccc([N+](=O)[O-])cc3)ccc21 | CYP1A1 (Mus musculus, UniProt P00184) | fold induction at 12 h, 5 µM | 0.64 |
| C#Cc1ccccc1/C=C/C(=O)c1ccc2c(c1)n(C)c(=O)n2C | CYP1A1 (Mus musculus, UniProt P00184) | fold induction at 12 h, 5 µM | 0.03 |
| Cn1c(=O)n(C)c2cc(C(=O)/C=C/c3ccoc3)ccc21 | CYP1A1 (Mus musculus, UniProt P00184) | fold induction at 12 h, 5 µM | 0.67 |
| Cn1cc(/C=C/C(=O)c2ccc3c(c2)n(C)c(=O)n3C)c2ccccc21 | CYP1A1 (Mus musculus, UniProt P00184) | fold induction at 12 h, 5 µM | 0.25 |

Numbers sourced from ChEMBL document CHEMBL6178019.
